system: HCC-2998 colon; assay: NCI tumour cell line growth inhibition, 48 h
Assignment: determine reported TGI for the given molecules.
Lab book: enter the figure in µM, no units written.

Supply recorded TGI for N#CC1=C(N)N(/N=C/c2ccccc2)C(c2ccccc2)C1(C#N)C#N (stereo unspecified) here.
34.9

Supply recorded TGI for O=C(CC1(O)C(=O)Nc2ccc(F)cc21)c1ccc(C(=O)NCC2CCC3(CC2)OOC2(CCCCC2)OO3)cc1 (stereo unspecified) here.
30

Supply recorded TGI for CCC1=CCN(c2cc(C)ccn2)OC1c1ccccc1 (stereo unspecified) here.
81.7

Supply recorded TGI for COc1cc(C(=O)N[C@H]2CCc3cc(OC)c(OC)c(OC)c3-c3ccc(SC)c(=O)cc32)cc(OC)c1OC here.
0.159

Supply recorded TGI for C/C(=C(/c1ccccc1)c1ccc(OCC(O)CNCCN2CCOCC2)cc1)c1ccccc1 (stereo unspecified) here.
3.43

---

Assignment: determine reported TGI for the given compounds.
test system: OVCAR-5 ovarian; assay: NCI tumour cell line growth inhibition, 48 h

Supply recorded TGI for N=c1ccc2nc3ccc(N)cc3sc-2c1 here.
24.3 µM

Supply recorded TGI for COc1ccc2c(O)c(S(=O)(=O)c3ccc(C)cc3)c(=O)oc2c1OC here.
> 100 µM

Supply recorded TGI for c1ccc2c(c1)NCc1cc3ccccc3nc1O2 here.
> 100 µM

Supply recorded TGI for COc1ccc(O)c(C(=O)CCC(=O)O)c1 here.
> 100 µM

Supply recorded TGI for CN/N=C(/c1nc2ccc([N+](=O)[O-])cc2[nH]c1=O)C(O)c1ccc(C(O)/C(=N\NC)c2nc3ccc([N+](=O)[O-])cc3[nH]c2=O)cc1 (centres undefined) here.
> 100 µM

Supply recorded TGI for CCOC(=O)C1Cc2ccc3c4c(ccc(c24)C1)CC(C(=O)OCC)C3 here.
> 100 µM

Supply recorded TGI for COc1cc([C@@H]2c3cc4c(cc3[C@H](OC(C)=O)[C@H]3COC(=O)[C@@H]23)OCO4)cc(OC)c1OC here.
> 100 µM

Supply recorded TGI for O=C(N/N=C\c1cccc2ccccc12)Nc1ccccc1 here.
> 100 µM

Supply recorded TGI for CCOc1cc(/C=C/C(=O)C(C(=O)/C=C/c2ccc(OC(=O)CNc3nc4ccccc4[nH]3)c(OCC)c2)C(=O)CNc2nc3ccccc3[nH]2)ccc1OC(=O)CNc1nc2ccccc2[nH]1 here.
5.22 µM

Supply recorded TGI for N#[N+]c1c([O-])c2ccccc2c2ccccc12 here.
> 100 µM

Supply recorded TGI for Cn1c(=Nc2ccc(Cl)cc2)sc2ccccc21 here.
> 100 µM

Supply recorded TGI for O=C(Nc1cccc2[nH]c(C(F)(F)F)nc12)c1cc(Cl)ccc1Cl here.
> 100 µM

Supply recorded TGI for COc1ccc(C(=O)c2sc3nc(-c4ccccc4OC)ccc3c2N)cc1OC here.
> 100 µM

Supply recorded TGI for O=C1c2cccnc2-c2nc(-c3cccnc3)cc3c2c1nc1ccccc13 here.
30.1 µM

Supply recorded TGI for CCC1=CCN(c2cc(C)ccn2)OC1c1ccccc1 (centres undefined) here.
> 100 µM

Supply recorded TGI for CCC(C)C(N)C(=O)N/N=C\c1c2c(nc3ccccc13)-c1cc3c(c(=O)n1C2)COC(=O)[C@]3(O)CC (some centres undefined) here.
> 43.5 µM

Supply recorded TGI for Cc1cc(NCc2cc(Nc3ccnc4cc(Cl)ccc34)ccc2F)nc(N2CCOCC2)n1 here.
6.97 µM

Supply recorded TGI for Cc1cc(CCl)c(C)cc1CCl here.
8.62 µM

Supply recorded TGI for O=C(O)c1nc2ccc(C(F)(F)F)cc2nc1Nc1ccc(Cl)c(Cl)c1 here.
28.9 µM

Supply recorded TGI for CC1(C)OCC(C2OC3OC(C)(C)OC3C2c2ccccc2)O1 (centres undefined) here.
> 100 µM

Supply recorded TGI for O=C(CC1(O)C(=O)Nc2ccc(F)cc21)c1ccc(C(=O)NCC2CCC3(CC2)OOC2(CCCCC2)OO3)cc1 (centres undefined) here.
36.5 µM

Supply recorded TGI for O=C1C[C@@]23CCC4(CC2CCC[C@H]3O1)OCCO4 (some centres undefined) here.
> 100 µM

Supply recorded TGI for CC[C@@H](CCCCC1CC[C@H]2CC(=O)C[C@@H]12)OC (some centres undefined) here.
> 100 µM

Supply recorded TGI for CN(Cc1ccc(F)cc1)c1ccc(CO)c(Cl)c1 here.
2.37 µM

Supply recorded TGI for COc1cccc2c1C(=O)c1c(O)c3c(c(O)c1C2=O)C[C@@](O)(C(=O)COC(=O)c1ccccc1)C[C@@H]3OC1CC(N)C(O)C(C)O1 (some centres undefined) here.
1.64 µM

Supply recorded TGI for O=c1[nH]ncc2[nH]c3c4ccccc4ccc3c12 here.
> 100 µM

Supply recorded TGI for CCOC(=O)c1ccc(NC(=O)NC2=NCCS2)cc1 here.
> 100 µM

Supply recorded TGI for Cc1nc2ccc(S(=O)(=O)NS(=O)(=O)c3ccc(-c4ccccc4)cc3)cc2c(=O)n1NS(=O)(=O)c1ccc(-c2ccccc2)cc1 here.
> 100 µM

Supply recorded TGI for O=Cc1ccc(OC[C@H]2COC(=O)N2)cc1 here.
> 100 µM

Supply recorded TGI for COc1ccc(C2=[S+]C(c3ccccc3)(c3ccccc3)c3ccccc32)cc1 here.
49.5 µM

Supply recorded TGI for CN=C(Nc1ccc(OC)c2ccccc12)SC here.
> 10 µM

Supply recorded TGI for O=C(Cn1cc(Br)c(=O)[nH]c1=O)c1ccc(-c2ccccc2)cc1 here.
> 27.5 µM

Supply recorded TGI for COc1c2c(nc3ccccc13)-c1cc(C(CC(=O)OC(C)(C)C)C(=O)OC(C)C)c(CO)c(=O)n1C2 (centres undefined) here.
> 100 µM

Supply recorded TGI for COc1ccc(-c2c(-c3ccccc3)c(C)c3ccccn23)cc1 here.
> 100 µM

Supply recorded TGI for Nc1nccc(NCC2(CO)CC(OCc3ccccc3)C2)n1 (centres undefined) here.
> 100 µM

Supply recorded TGI for COC(=O)C(=O)C(CC(=O)Nc1ccc(C)cc1)C(=O)OC (centres undefined) here.
> 100 µM

Supply recorded TGI for COC/N=C(\NC#N)NCOC here.
> 100 µM

Supply recorded TGI for Cc1ccc(Cl)cc1N=NC(=O)NNc1cc(Cl)ccc1C here.
32.7 µM

Supply recorded TGI for Clc1ccc2c(NCCCCN3OC3c3ccccc3)ccnc2c1 (centres undefined) here.
29.8 µM

Supply recorded TGI for COc1ccc(-c2c(C#N)c(N)nc(N3CCOCC3)c2C#N)cc1 here.
59.9 µM

Supply recorded TGI for O=c1c2c(-c3ccccc3)c3ccccc3nc2cnn1-c1ccccc1 here.
> 100 µM

Supply recorded TGI for CCOP(=O)(OCC)/C(C#N)=C/c1ccccn1 here.
> 100 µM

Supply recorded TGI for CCCCCCCCC/C=C1/CC(CO)(COC(=O)CC(C(C)C)C(C)C)OC1=O (centres undefined) here.
24.6 µM

Supply recorded TGI for CCCc1nc(Cl)nc(Cl)c1Cl here.
1.74 µM

---

system: EKVX NSCLC; test: NCI tumour cell line growth inhibition, 48 h
reportedMetric: TGI

Fill in: TGI on EKVX NSCLC, entry COC(=O)C(=O)C(CC(=O)Nc1ccc(C)cc1)C(=O)OC (stereo not given)
> 100 µM

Fill in: TGI on EKVX NSCLC, entry O=c1oc(-c2ccc(O)cc2)cc2cc(O)ccc12
> 100 µM

Fill in: TGI on EKVX NSCLC, entry O=C1CCCC/C1=C\c1ccc([N+](=O)[O-])cc1
> 100 µM

Fill in: TGI on EKVX NSCLC, entry O=[N+]([O-])c1ccc(C2ON=C(c3ccccc3)N2C23CC4CC(CC(C4)C2)C3)cc1 (stereo not given)
> 10 µM

Fill in: TGI on EKVX NSCLC, entry COC1(C2c3ccccc3CCN2C(=O)OC(C)(C)C)C(=O)C(c2ccccc2)=C1N(C)C (stereo not given)
> 100 µM

Fill in: TGI on EKVX NSCLC, entry C=CC(C)(C)n1cc(C2=C(O)C(=O)C(c3cn(C(C)(C)C=C)c4ccccc34)=C(O)C2=O)c2ccccc21
14 µM

Fill in: TGI on EKVX NSCLC, entry O=C(NN1C(=O)C(Cl)C1c1cccc([N+](=O)[O-])c1)c1ccccc1O (stereo not given)
> 100 µM

Fill in: TGI on EKVX NSCLC, entry CC1CN=C(Nc2cccc(F)c2)S1 (stereo not given)
> 100 µM

Fill in: TGI on EKVX NSCLC, entry CC[C@@H](CCCCC1CC[C@H]2CC(=O)C[C@@H]12)OC (stereo not given in full)
> 100 µM

Fill in: TGI on EKVX NSCLC, entry C=C1C[C@@H](O)[C@@H](Br)C(C)(C)[C@@]12C=CC(=O)CC2
> 51.8 µM
